TARGET OF ASSAY: B7-H3 expressed on the cell membrane (MCF-7, RKO and RKO/B7H3 cell lines) (UniProt Q5ZPR3)
Sequence (Q5ZPR3 29-534): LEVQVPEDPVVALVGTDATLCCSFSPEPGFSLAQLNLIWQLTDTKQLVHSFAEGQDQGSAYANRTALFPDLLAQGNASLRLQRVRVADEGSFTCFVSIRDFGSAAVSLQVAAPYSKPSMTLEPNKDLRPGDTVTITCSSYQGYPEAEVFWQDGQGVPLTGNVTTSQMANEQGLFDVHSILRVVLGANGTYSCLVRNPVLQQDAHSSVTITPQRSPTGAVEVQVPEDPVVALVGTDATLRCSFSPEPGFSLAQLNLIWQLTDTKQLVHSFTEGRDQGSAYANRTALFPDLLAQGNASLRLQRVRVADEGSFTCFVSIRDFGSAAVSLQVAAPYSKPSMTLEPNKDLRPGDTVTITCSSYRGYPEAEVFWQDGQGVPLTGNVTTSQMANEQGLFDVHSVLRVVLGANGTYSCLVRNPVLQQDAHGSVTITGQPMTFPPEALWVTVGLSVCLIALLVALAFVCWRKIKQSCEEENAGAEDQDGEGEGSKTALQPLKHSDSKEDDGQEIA
ASSAY DETAILS: cell ELISA on fixed RKO/B7H3 cells
QUANTITY MEASURED: pEC50
Bear in mind: pEC50 is minus log10 of a mol/L concentration; give just that figure.

Some solved entries appear below for comparison.
BINDER	pEC50
#4 antibody (antibody, V domains shown) VH: EVQLLESGGGLVQPGGSLRLSCAASGFTFSSYGMHWVRQAPGKGLEWVSAISGSGTSIYYANSVKSRFTISRDNSKNTLYLQMNSLRAEDTAVYYCARGAGWFDYWGQGTLVTVSS VL: QSVLTQPPSASGTPGQRVTISCSGSTSNIGSNTVNWYQQLPGTAPKLLIYGKNIRPNGVPDRFSGSKSGTSASLAISGLHSEDEADYYCQSYDSSLSGWVFGGGTKLTVL	10.38
#2 antibody (antibody, V domains shown) VH: EVQLLESGGGLVQPGGSLRLSCAASGFTFSAYYMIWVRQAPGKGLEWVSITNPSGGVTSYAQKFQGRFTISRDNSKNTLYLQMNSLRAEDTAVYYCARVGGRGFDIWGQGTLVTVSS VL: EIVLTQSPGTLSLSPGERATLSCHASQGISNYVAWYQQKPGQAPRLLIYDASNRATGIPDRFSGSGSGTDFTLTISHLEPEDFAVYYCQQSYSTLLTFGQGTKVEIK	10.44

Then this binder:
input: Item under review: #1 antibody (antibody, V domains shown) VH: EVQLLESGGGLVQPGGSLRLSCAASGFTFSSYAMSWVRQAPGKGLEWVSTITGSGGSTYYADSVKGRFTISRDNSKNTLYLQMNSLRAEDTAVYYCARYKSGAFDIWGQGTLVTVSS VL: EIVLTQSPGTLSLSPGERATLSCRASQGIGNYLGWYQQKPGQAPRLLIYTASSLQSGIPDRFSGSGSGTDFTLTISRLEPEDFAVYYCQQGYSTPSWTFGQGTKVEIK . Reported pEC50?
output: 10.82
